Each entry below lists one item and its recorded ELISA fold over background value.
- System under test: T1, Acro COVID S1 (S1N-C82E8) (SARS-CoV-2, UniProt P0DTC2 16-685)
- T1 construct: domain: S1
- Test summary: phage ELISA
# unit: fold over background | format: bare number

INSERT INTO assay_data (binder, endpoint_value) VALUES
  ('1-23 (antibody, V domains shown, also called variant 1-23) VH: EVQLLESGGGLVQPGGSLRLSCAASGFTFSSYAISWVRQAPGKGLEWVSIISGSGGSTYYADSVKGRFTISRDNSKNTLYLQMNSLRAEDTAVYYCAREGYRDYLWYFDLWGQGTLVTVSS VL: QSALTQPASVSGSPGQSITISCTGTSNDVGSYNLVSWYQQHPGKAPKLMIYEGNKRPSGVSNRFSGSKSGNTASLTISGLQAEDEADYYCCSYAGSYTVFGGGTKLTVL', 5.1),
  ('1-5 (antibody, V domains shown, also called variant 1-5) VH: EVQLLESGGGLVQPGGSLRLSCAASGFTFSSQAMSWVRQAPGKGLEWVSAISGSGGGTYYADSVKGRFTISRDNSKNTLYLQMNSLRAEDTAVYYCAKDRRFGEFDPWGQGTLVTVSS VL: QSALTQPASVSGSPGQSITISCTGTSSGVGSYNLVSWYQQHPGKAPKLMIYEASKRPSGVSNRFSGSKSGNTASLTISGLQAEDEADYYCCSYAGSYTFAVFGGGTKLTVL', 1.5);

Please examine the following record next.
Any idea what ELISA fold over background was measured for 1-7 (antibody, V domains shown, also called variant 1-7) VH: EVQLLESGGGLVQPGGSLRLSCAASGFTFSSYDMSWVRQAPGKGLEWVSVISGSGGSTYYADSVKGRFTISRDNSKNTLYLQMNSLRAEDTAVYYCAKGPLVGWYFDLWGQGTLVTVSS VL: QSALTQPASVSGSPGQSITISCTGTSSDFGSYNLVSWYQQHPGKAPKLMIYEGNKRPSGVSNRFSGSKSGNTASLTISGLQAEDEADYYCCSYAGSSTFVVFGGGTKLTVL ?
6.8

Cited source for all entries: patent US20210395344A1
